assay: Cycloheximide Counterscreen for Small Molecule Inhibitors of Shiga Toxin; details: cell reporter, cycloheximide protein synthesis inhibition counterscreen; further: read at 38.3 µM for the half of the compounds with a filed dose
Screen size: about 300,000 compounds; about 37,000 (12%) were called active. No stated cut-off is given here; in the data, active means max response mostly above about 13% (no sharp cut-off); inactive means mostly below about 14%. For the sample, actives were picked, then their nearest neighbours and some compounds at random.
Classes used: active, inactive

compound=CC1(C)CC(=O)C/C(=N\NC(=O)c2cccs2)C1 assigned_label=inactive
compound=CC(C)OCCCNC(=O)CNC(=O)c1cccs1 assigned_label=inactive
compound=Cc1cc(NC(=O)[C@H](C)NC(=O)c2ccco2)ccc1Br assigned_label=inactive
compound=COc1ccc2oc(-c3cccc(NC(=O)CSc4ccc(Cl)cc4)c3)nc2c1 assigned_label=active
compound="COCC(C)NC(=O)c1ccc(-n2nc(C(F)(F)F)cc2-c2cccs2)cc1 (configuration not stated)" assigned_label=inactive
compound=Cc1cc(S(=O)(=O)NCC(C)C)ccc1OCC(=O)NC1CC1 assigned_label=inactive
compound=O=C(c1ccc(Cl)c(Cl)c1)N1CCCC1 assigned_label=inactive
compound=Cc1cccc(N2CCN(c3ccc(C(N)=O)cc3[N+](=O)[O-])CC2)c1C assigned_label=inactive
compound="Cc1ccc(CC2C(=O)N(c3ccc(F)cc3)C(=O)C2C)cc1 (configuration not stated)" assigned_label=inactive
compound="CC1C/C(=N/NC(=O)c2cccs2)CC(C)(C)C1 (configuration not stated)" assigned_label=active
compound="Cc1ccc(-c2noc(-c3ccccc3C(=O)NCC3CCCO3)n2)cc1 (configuration not stated)" assigned_label=active
compound=O=C(Nc1ccccc1)c1ccco1 assigned_label=active
compound=O=C(Nc1ccc2oc(-c3ccccc3F)nc2c1)c1ccco1 assigned_label=active
compound=CCOC(=O)CCCN1CC(O)=C(c2nc3ccccc3s2)C1=N assigned_label=inactive
compound=CC(C)(C)c1ccc(SCCc2ccncc2)cc1 assigned_label=active
compound=CC(=O)N/C(=N/c1nc(C)cc(C)n1)Nc1ccc(F)cc1F assigned_label=inactive
compound=COc1ccccc1N1CC(O)=C(c2nc3ccccc3s2)C1=N assigned_label=active
compound=COc1ccc(C(=O)NCc2nnc(SCC(=O)Nc3cccc(OC)c3)o2)cc1 assigned_label=inactive
compound="CCC(=O)c1c[nH]c(C(=O)NCC2CCCO2)c1 (configuration not stated)" assigned_label=inactive
compound="O=C(CSCc1c(F)cccc1Cl)NCC1CCCO1 (configuration not stated)" assigned_label=inactive
compound=COc1cccc(-c2nc3cc(C)ccc3o2)c1 assigned_label=active
compound="Cc1cccc(NC(=O)C2CCCN(C(=O)NCc3ccccc3)C2)c1C (configuration not stated)" assigned_label=inactive
compound=Oc1ccc(N=Nc2nccs2)c(O)c1 assigned_label=active
compound=Cc1ccc(C(=O)NCCNS(=O)(=O)c2ccccc2)cc1 assigned_label=inactive
compound=O=C(Nn1cnnc1)c1ccc([N+](=O)[O-])cc1 assigned_label=inactive
compound=Cc1ccc(C(=O)N2CCC(n3nccc3NC(=O)Nc3cccc(F)c3)CC2)cn1 assigned_label=inactive
compound="Cc1nc2ccccc2c2oc(C(=O)NCC3CCCO3)cc12 (configuration not stated)" assigned_label=inactive
compound=O=C1CCN(C(=S)NCCc2ccccc2)CC1 assigned_label=inactive
compound=N#Cc1c(-c2ccccc2)nc(SCc2cccc(C(F)(F)F)c2)[nH]c1=O assigned_label=inactive
compound=COc1ccc(C(=O)NC2CCN(C(=S)NCCc3ccccc3)CC2)cc1 assigned_label=inactive
compound=O=C(Nc1ccc(Sc2ccc(Br)cc2)cc1)c1ccco1 assigned_label=active
compound=N=C1C(c2nc3ccccc3[nH]2)=C(O)CN1NC(=O)c1c[nH]c2ccccc12 assigned_label=inactive
compound=CC(=O)N(c1ccc2oc(=O)sc2c1)S(=O)(=O)c1ccc(C)cc1 assigned_label=inactive
compound=S=C(NCCc1ccccc1)N1CCCCC1 assigned_label=active
compound=CN1CN(C)c2ccc([N+](=O)[O-])c3cccc1c23 assigned_label=inactive
compound=COc1cccc(-c2nnc(SCCOc3ccc4c(C)cc(=O)oc4c3)o2)c1 assigned_label=inactive
compound="O=C(NCC1CCCO1)c1cc(-c2ccccc2)nc2ccccc12 (configuration not stated)" assigned_label=inactive
compound=CCOC(=O)c1nnn(-c2nonc2-n2cccc2)c1CN1CCC(C(=O)OCC)CC1 assigned_label=inactive
compound=Oc1ccc2ccccc2c1N=Nc1nccs1 assigned_label=inactive
compound=Cc1ccc(-c2nc(SCC(=O)Nc3ccccc3OC(F)F)c3c(C)c(C(=O)O)sc3n2)cc1 assigned_label=inactive
compound="CCc1ccc(N2CC(C(=O)Nc3ccc(S(=O)(=O)Nc4nccs4)cc3)CC2=O)cc1 (configuration not stated)" assigned_label=inactive
compound=CCCc1nn2c(=O)cc(CSCC(=O)Nc3cccc(C)c3)nc2s1 assigned_label=inactive
compound="COc1ccc2cc(C(=O)NCC3CCCO3)[nH]c2c1 (configuration not stated)" assigned_label=active
compound=CCc1ccc(N2CC(O)=C(c3nc4ccccc4c(=O)[nH]3)C2=N)cc1 assigned_label=inactive
compound=COc1cccc(-c2nc(S(=O)(=O)c3ccccc3)c(N3CCOCC3)o2)c1 assigned_label=inactive
compound="COc1ccc(NC(=O)CCCN2C(=O)C(c3ccccc3)Oc3cccnc32)cc1 (configuration not stated)" assigned_label=inactive
compound=Cc1c(-c2ccccc2)cn2c1-c1ccc(C)n1CC2 assigned_label=inactive
